# credit: ChEMBL document CHEMBL1201862

system: MCF7; assay: NCI tumour cell line growth inhibition, 48 h
The source made the active and inactive calls. Rule as the data show it: active = GI50 up to about 1.1 µM and inactive = higher.
experimental endpoint: GI50

Please review the entries below; each comes with its answer.
| compound | assay target | reading |
| --- | --- | --- |
| CC1CC[C@@]2(OC1)OC1C[C@H]3[C@@H]4CC=C5CC(OC6OC(CO)C(OC7OC(CO)C(O)C(OC8OCC(O)C(O)C8O)C7OC7OC(CO)C(O)C(O)C7O)C(O)C6O)CCC5(C)[C@H]4CCC3(C)C1[C@@H]2C (some centres undefined) | MCF7 | 6.3 µM (inactive) |
| C[C@@H]1O[C@@H]2OCC[C@@H]2C2=C1C(=O)c1ccccc1C2=O | MCF7 | 1.25 µM (inactive) |
| COc1cccc(C(NC2=NCCC=N2)c2cc3c(cc2O)OCO3)c1O (centres undefined) | MCF7 | 18 µM (inactive) |

For CCOC(=O)c1c(O)cc(=O)[nH]c1N1CCOCC1 , what is its reported GI50?
> 100 µM (inactive)

====

system: TK-10; experiment: NCI tumour cell line growth inhibition, 48 h
Activity calls are given as the source filed them. Cut-off read from the data, not from the text of the source: active = GI50 up to about 1.1 µM and inactive = higher.
experimental endpoint: GI50

| compound | GI50 |
| --- | --- |
| Cc1ccc(Nc2nc(C)c(C(/C=C/c3ccc4c(c3)OCO4)=N/Nc3ccc([N+](=O)[O-])cc3[N+](=O)[O-])s2)c([N+](=O)[O-])c1 | 37.8 µM (inactive) |
| CCN(C(C)=N)c1ccccc1 | > 100 µM (inactive) |
| COc1cc(C2OC(N)=C(C#N)C3=C2C(C)CCC3)cc(OC)c1OC (stereo not given) | > 100 µM (inactive) |
| CC(=O)Nc1ccc2nc(N)n[n+]([O-])c2c1 | 77.8 µM (inactive) |
| CN(C)c1ccc(/C(F)=C(F)/C(F)=C(F)/C(F)=C(\F)c2ccc(Br)cc2)cc1 | > 75.5 µM (inactive) |

Provide GI50 values for the following items, in order.
1. O=[N+]([O-])c1nccn1CC(O)c1ccccc1 (stereo not given)
2. CCC1OC2C(CC=C(C)C)=C3OC(C)(O)C(C)(CC)C(=O)C3=C3OC(=O)C=C1C32 (stereo not given)

["> 100 µM (inactive)", "46.5 µM (inactive)"]

====

test system: KM12; assay: NCI tumour cell line growth inhibition, 48 h
Active and inactive are the calls of the source. No stated cut-off is given here; in the data, active = GI50 up to about 1.1 µM and inactive = higher.
Response enum: 1 (yes) (active), 0 (no) (inactive)

The following compounds have reported results that may help.
| compound | group |
| --- | --- |
| CN(C)S(=O)(=O)Nc1nnc(S(N)(=O)=O)s1 | 0 (no) |
| CC(=O)N(CN1C(=O)CCC1C(=O)O)c1ccccc1 (stereo not given) | 0 (no) |
| CO[C@@H]1C[C@H]2[C@@H]3CC[C@H]([C@H](C)COC(C)=O)[C@@]3(C)CC[C@@H]2[C@@]2(C)CC[C@H]3C[C@]312 | 0 (no) |
| Cc1cc(S(=O)(=O)O)ccc1/N=N/c1ccc(/N=N/c2c(O)ccc3ccccc23)c(C)c1 | 0 (no) |
| O=C(O)c1nc2ccccc2nc1Nc1ccc(Cl)c(Cl)c1 | 0 (no) |

Each compound tested received a call. Report the one for COc1ccc(C2Cc3cc(OC)c(OC)c(OC)c3C2)cc1 (stereo not given) .
0 (no)

And what about the compound CCOC(=O)CN1C(=O)c2c(c(C)n(-c3ccccc3)c2C)C1=O ?
0 (no)

And what about the compound C#CCOC(=O)C(N)C(C)O (stereo not given) ?
0 (no)

And what about the compound Cc1ccc(C(=O)Nc2ccccc2)cc1/N=N/N(C)C ?
0 (no)

And what about the compound CC(C)(C)C(=O)C(N)C(=O)C(C)(C)C ?
0 (no)

And what about the compound COc1c(C(=O)O)oc2c(OC)cccc12 ?
0 (no)

====

system: A549; test: NCI tumour cell line growth inhibition, 48 h
The source made the active and inactive calls. Cut-off read from the data, not from the text of the source: active = GI50 up to about 1.1 µM and inactive = higher.
experimental endpoint: GI50

Please review the entries below; each comes with its answer.
| compound | GI50 |
| --- | --- |
| CC(C)OC(=O)c1cccnc1/C=N/O | > 100 µM (inactive) |
| CN(Cc1cc(Cl)cc(Cl)c1O)Cc1c(O)ccc2ccccc12 | 26 µM (inactive) |
| COc1ccc(C(=O)C(C(=O)C(=O)Nc2nccs2)c2ccc(OC)cc2)cc1 (stereo not given) | > 100 µM (inactive) |

Provide GI50 values for the following items, in order.
1. CCOC(=O)c1csc(NC(=O)CN(C)C)n1
2. C[C@]12CCC3[C@@H](CC[C@@H]4c5nonc5CC[C@]34C)C1CCC(=O)N2 (stereo not given in full)
3. COc1ccc(-c2cc(=O)c3c(OC)c(OC)c(OC)c(OC)c3o2)cc1

["> 100 µM (inactive)", "> 100 µM (inactive)", "51.6 µM (inactive)"]

Provide GI50 values for the following items, in order.
1. COc1cc(/C=C2\N=C(c3ccccc3)N(/N=C/c3cc4cc(C)ccc4nc3Cl)C2=O)cc(OC)c1OC
2. CCOP(=O)(OCC)C(NC(=O)C(C(F)(F)F)C(F)(F)F)c1ccccc1 (stereo not given)
3. Cc1ccc(S(=O)(=O)N/N=C(\C(=O)Nc2cccc([N+](=O)[O-])c2)c2nc3ccc([N+](=O)[O-])cc3nc2O)cc1

1. 36.4 µM (inactive)
2. > 100 µM (inactive)
3. 31.8 µM (inactive)

Provide GI50 values for the following items, in order.
1. Cc1cn(C2CC(O)C(Cn3nncc3Cn3ncc(=O)[nH]c3=O)O2)c(=O)[nH]c1=O (stereo not given)
2. O=S(=O)(c1ccccc1)n1c2cc3cccnc3nc2c2cccnc21
3. COC(=O)NC(Cc1ccccc1)NC(C)=O (stereo not given)
4. NC(=O)C(=O)C1C(=O)N(c2ccccc2)N=C1N (stereo not given)

1: > 100 µM (inactive); 2: > 100 µM (inactive); 3: > 100 µM (inactive); 4: > 100 µM (inactive)

Provide GI50 values for the following items, in order.
1. CC(=O)OC(Cn1cncn1)(Cn1cncn1)c1ccc(Cl)cc1Cl
2. N#CC(C#N)=C(N)/C(C#N)=C/c1ccc(O)c(O)c1
3. C=C1C(=O)OC2/C=C(\C)C(=O)CC3OC(C)(C)OC3(C)CC(OC(=O)/C(C)=C/C)C12 (stereo not given)
4. CC(=O)Nc1ccc2nc(N)n[n+]([O-])c2c1
5. CC1(C)CC2=NO[Se]3=C2C(=NO3)C1

["> 100 µM (inactive)", "> 100 µM (inactive)", "48.8 µM (inactive)", "> 100 µM (inactive)", "3.42 µM (inactive)"]

====

I'd appreciate it if you could supply GI50 values for the items below.
system: CAKI-1; assay: NCI tumour cell line growth inhibition, 48 h
Active and inactive are the calls of the source. Cut-off read from the data, not from the text of the source: active = GI50 up to about 1.1 µM and inactive = higher.

| molecule | GI50 |
| --- | --- |
| C=CC(C)(C)n1cc(C2=C(O)C(=O)C(c3c(CC=C(C)C)[nH]c4ccccc34)=C(O)C2=O)c2ccccc21 | 2.39 µM (inactive) |

Provide GI50 values for the following items, in order.
1. Cc1cc(S(=O)(=O)n2ccnc2O)c(SCCCN(C)C)cc1Cl
2. C[C@]12CCC3[C@@H](CC[C@@H]4c5nonc5CC[C@]34C)C1CCC(=O)N2 (stereo not given in full)

> 100 µM (inactive)
> 100 µM (inactive)

Provide GI50 values for the following items, in order.
1. CC(Cl)CC(=O)OCC1CCCN2CCCCC12 (stereo not given)
2. CC(C)(C)OC(=O)NCC(=O)N1CCN(C(=O)CNC(=O)OC(C)(C)C)CC1
3. CC1(C)CC(=O)C2=C(C1)NC(=S)C(C#N)C2c1ccccc1 (stereo not given)
4. Nc1ccccc1C(=O)NNC(=O)c1ccccc1N
5. Cn1nnc2c(C(N)=O)ncn2c1=O [TEMOZOLOMIDE]
6. COc1cc(C2OC(N)=C(C#N)C3=C2C(C)CCC3)cc(OC)c1OC (stereo not given)
7. O=C(/C=C\c1cccc2ccccc12)c1ccc(Cl)cc1Cl

["> 100 µM (inactive)", "> 100 µM (inactive)", "> 100 µM (inactive)", "> 100 µM (inactive)", "> 100 µM (inactive)", "> 100 µM (inactive)", "47.5 µM (inactive)"]

====

test system: NCI-H226; experiment: NCI tumour cell line growth inhibition, 48 h
Calls of active or inactive are those of the source. No stated cut-off is given here; in the data, active = GI50 up to about 1.1 µM and inactive = higher.
I'd appreciate it if you could supply GI50 values for the items below.

| compound | assay target | GI50 |
| --- | --- | --- |
| C[C@]12CCC3[C@@H](CC[C@@H]4c5nonc5CC[C@]34C)C1CCC(=O)N2 (some centres undefined) | NCI-H226 | > 100 µM (inactive) |
| CCc1cccc(C(C)C)c1NC1=C([n+]2ccc(C)cc2)C(=O)c2ccccc2C1=O.[O-][Cl+3]([O-])([O-])[O-] | NCI-H226 | 1.39 µM (inactive) |
| O=C(/C=C/c1ccc(Br)cc1)c1ccc(NCc2nc3ccccc3[nH]2)cc1 | NCI-H226 | 10.9 µM (inactive) |

Provide GI50 values for the following items, in order.
1. Cc1cn(C2CC(O)C(Cn3nncc3Cn3ncc(=O)[nH]c3=O)O2)c(=O)[nH]c1=O (centres undefined)
2. O=C(CCC(=O)Nc1cccc(C(F)(F)F)c1)CC(=O)c1ccc2ccccc2c1
3. N#CC(/C(CCCC(=O)Nc1cccc([N+](=O)[O-])c1)=N\NC(=O)c1c(O)ccc2ccccc12)c1nc2ccccc2s1 (centres undefined)
4. CC(C)(C)NCC(COc1ccc([N+](=O)[O-])cc1)OP(c1ccccc1)c1ccccc1 (centres undefined)
5. CCC(=O)OC[n+]1ccc2c(C)c3[nH]c4ccc(OC)cc4c3c(C)c2c1
6. O=C(c1cccnc1)N1N=C(c2ccc3c(c2)OCO3)CC1(O)c1cc(F)c(Cl)cc1Cl (centres undefined)

> 100 µM (inactive)
> 100 µM (inactive)
21.9 µM (inactive)
29 µM (inactive)
0.348 µM (active)
16.2 µM (inactive)
